Measured IC50 of individual entries
assay.system: hDGAT-1 (HuTu 80) (Homo sapiens, UniProt O75907)
Construct: microsomal protein isolated from human duodenal adenocarcinoma (‘Hutu 80’); endogenous in cells
Sequence (O75907 whole entry): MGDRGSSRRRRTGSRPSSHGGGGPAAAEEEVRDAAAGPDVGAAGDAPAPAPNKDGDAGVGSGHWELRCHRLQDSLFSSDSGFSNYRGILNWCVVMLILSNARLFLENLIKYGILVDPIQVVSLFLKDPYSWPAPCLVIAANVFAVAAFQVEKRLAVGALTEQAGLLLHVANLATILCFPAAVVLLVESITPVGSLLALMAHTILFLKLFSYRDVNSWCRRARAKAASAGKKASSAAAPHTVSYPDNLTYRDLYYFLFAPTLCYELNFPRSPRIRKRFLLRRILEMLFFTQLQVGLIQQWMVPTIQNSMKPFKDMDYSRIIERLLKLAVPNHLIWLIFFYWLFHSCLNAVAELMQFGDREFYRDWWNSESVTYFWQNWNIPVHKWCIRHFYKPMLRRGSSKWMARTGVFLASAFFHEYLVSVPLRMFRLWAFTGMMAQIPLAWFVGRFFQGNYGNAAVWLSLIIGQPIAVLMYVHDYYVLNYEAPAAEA
procedure.details: DGAT enzyme inhibition test, microsomal protein from human duodenal adenocarcinoma (Hutu 80)
test.conditions: microsomal protein from HuTu 80
Quote the value and follow it with the unit of measurement.

CC(C)N(NC(=O)c1ccc(Br)cc1)C(=O)/C=C/c1cn(C(=O)OC(C)(C)C)c2ccccc12 [Example 13] | 8.1 µM

What does the record list as IC50 for CC(C)N(NC(=O)c1ccccc1)C(=O)CCc1c[nH]c2ccccc12 [Example 23] ?
25.8 µM

What does the record list as IC50 for CC(C)N(NC(=O)c1ccccc1)C(=O)/C=C/c1cn(Cc2ccccc2)c2ccccc12 [Example 26] ?
2.9 µM

What does the record list as IC50 for CC(C)N(NC(=O)c1cccnc1)C(=O)/C=C/c1cn(C(=O)OC(C)(C)C)c2ccccc12 [Example 3] ?
6.5 µM
